Data credit: patent US20050009924A1

test system: transcriptional activity of hTERT; assay: SEAP reporter assay of hTERT expression, PhTERT-SEAP (hTERT-BJ1); type: cell-based, human; conditions: 20 μM, PhTERT-SEAP (hTERT-BJ1)
measured-property: Relative SEAP activity (%)
Please state the figure in %; there is no need to write the unit.

Some entries whose results are on file:
# compound, measured-property, reading
rows = [
    ("O=C(Nc1ccc(NC(=O)c2cccc(F)c2)c2c1C(=O)c1ccccc1C2=O)c1cccc(F)c1", "Relative SEAP activity (%)", 108),
    ("Cc1cc(C(=O)Nc2ccc(NC(=O)c3cc(C)oc3C)c3c2C(=O)c2ccccc2C3=O)c(C)o1", "Relative SEAP activity (%)", 79),
]

Record request: Relative SEAP activity (%) value, item NCC1CC1CCC(=O)Nc1ccc(NC(=O)CCC2CC2CN)c2c1C(=O)c1ccccc1C2=O (centres unmarked)
95

Record request: Relative SEAP activity (%) value, item "O=C(Nc1ccc(NC(=O)c2ccccc2F)c2c1C(=O)c1ccccc1C2=O)c1ccccc1F"
96

Record request: Relative SEAP activity (%) value, item "O=C(Nc1ccc(NC(=O)c2ccc(F)cc2)c2c1C(=O)c1ccccc1C2=O)c1ccc(F)cc1"
101
